Molecular target: CDK2-CYCLIN E1 (Homo sapiens (Human))
pIC50: −log10 of the molar value.
testReadout: pIC50

Asked: Returns the measured pIC50 for the input molecule. Input: CC(C)n1c(C(C)(C)O)nc2c(F)cc(-c3nc(N[C@@H]4CCOC[C@H]4O)ncc3Cl)cc21 [Reference Compound, PF-07220060, reference compound]
Given back: < 4.52

Origin of measurements: patent US20250084095A1
